TESTED_TARGET: cyEpCAM ECD Ag0066 (cyno)
ASSAY_NOTES: SPR single-cycle
We begin with a simple list: items and their reported Kd.
Response body: numeric value in nM, unit text excluded.

Some solved cases for reference:
{"BINDER": "Ab1017 (antibody, V domains shown) VH: EVQLVESGGGLVQPGGSLRLSCAASGFTFSNYWMSWVRQAPGKGLEWVAQIRVKSENFATHYADSVKGRFTISRDDSKSTVYLQMNSLRAEDTAVYYCTLYDGFSWGQGTLVTVSS VL: DIQMTQSPSSLSASVGDRVTITCSASSSVSSGNFHWYQQKPGKAPKLLIYRTSNLASGVPSRFSGSGSGTDYTLTISSLQPEDFATYYCQQWSGYPYTFGQGTKVEIK", "Kd (nM)": 4.5}
{"BINDER": "Ab1024 (antibody, V domains shown) VH: EVQLVESGGGLVQPGGSLRLSCAASGFTFSNYWMNWVRQAPGKGLEWVAQIRVKSENFATHYVDSVKGRFTISRDDSKSTVYLQMNSLRAEDTAVYYCTLYDGFSWGQGTLVTVSS VL: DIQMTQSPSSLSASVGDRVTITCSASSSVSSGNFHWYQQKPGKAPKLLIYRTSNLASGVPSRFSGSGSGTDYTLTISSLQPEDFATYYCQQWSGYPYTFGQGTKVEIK", "Kd (nM)": 2}

Now consider the entry below.
Asked: Name the reported Kd value associated with the binder Ab1021 (antibody, V domains shown) VH: EVQLVESGGGLVQPGGSLRLSCAASGFTFSNYWMNWVRQSPGKGLEWVAQIRVKSENFATHYADSVKGRFTISRDDSKSTVYLQMNSLRAEDTAVYYCTLYDGFSWGQGTLVTVSS VL: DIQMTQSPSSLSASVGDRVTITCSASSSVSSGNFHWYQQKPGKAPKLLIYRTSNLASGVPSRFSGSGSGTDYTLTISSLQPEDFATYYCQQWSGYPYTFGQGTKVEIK
Given back: 2.3
